Quick reference: Kd of the listed items.
Molecular target: T1, recombinant Human IL-17BR-His extracellular domain (human, UniProt Q9NRM6 18-292)
T1 construct: extracellular domain; also called human IL17BR-his tag protein
T1 sequence (looked up): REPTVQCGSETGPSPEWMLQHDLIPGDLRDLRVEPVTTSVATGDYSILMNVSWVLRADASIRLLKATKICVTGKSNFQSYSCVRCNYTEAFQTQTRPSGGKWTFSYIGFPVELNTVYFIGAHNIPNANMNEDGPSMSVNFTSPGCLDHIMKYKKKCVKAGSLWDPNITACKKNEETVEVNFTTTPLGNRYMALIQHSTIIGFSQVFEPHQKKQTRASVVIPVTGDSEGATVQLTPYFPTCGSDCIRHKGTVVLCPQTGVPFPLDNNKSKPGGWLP
Test: Biacore T200, antibody captured by anti-human Fc, Human IL17BR-His 20-1.25 nM, 1:1 model
Give the number; nM is assumed, so skip it.

{"Binder": "humanized antibody hD9041 (antibody, V domains shown, Human IgG1/kappa (pHuG1, pHuK vectors)) VH: EVQLVQSGAEVKKPGASVKVSCKTSGYTFISYWMNWVRQAPGQGLEWMGRIDPYDSEIQYAQKFQGRVTLTRDTSISTAYMELSRLRSDDTAVYYCARSGGFDWFAYWGQGTLVTVSS VL: DIQMTQSPSSLSASVGDRVTITCRASENINSNLAWYQQKPGKAPKLLLYDVTNLADGVPSRFSGSGSGTDYTLTISSLQPEDFATYYCQHFWGPPYTFGGGTKVEIK", "Observed Value": 0.011}
{"Binder": "chimeric antibody cD9001 (antibody, V domains shown, Mouse D9.2 variable domains on human IgG1/kappa constant regions; also called chimeric D9.2) VH: QVQLQQPGAELVRPGASVKLSCKTSGYTFISYWMNWVKQGPEQGLEWIGRIDPYDSEIQYNQKFKDKAILTVDKSSSAAYMQLISLTSEDSAVYYCARSGGFDWFAYWGQGTLVTVSA VL: DIQMTQSPASLSVSVGETVTITCRASENINSNLAWYQQKKGKSPQLLVYDVTNLADGVPSRFSGSGSGTQYSLKINSLQSEDFGSYYCQHFWRPPYTFGGGTNLEIK", "Observed Value": 0.017}
{"Binder": "humanized antibody hD9042 (antibody, V domains shown, Human IgG1/kappa (pHuG1, pHuK vectors); also called lead candidate) VH: QVQLVQSGAEVKKPGASVKVSCKASGYTFISYWMNWVRQAPGQGLEWMGRIDPYDSEIQYNQKFKDRVTMTRDTSISTAYMELSRLRSDDTAVYYCARSGGFDWFAYWGQGTLVTVSS VL: DIQMTQSPSSLSASVGDRVTITCRASENINSNLAWYQQKPGKAPKLLLYDVTNLADGVPSRFSGSGSGTDYTLTISSLQPEDFATYYCQHFWGPPYTFGGGTKVEIK", "Observed Value": 0.017}

Please examine the following record next.
// recorded Kd for humanized antibody hD9040 (antibody, V domains shown, Human IgG1/kappa (pHuG1, pHuK vectors)) VH: EVQLVQSGAEVKKPGASVKVSCKTSGYTFISYWMNWVRQAPGQGLEWMGRIDPYDSEIQYNQKFKDRVTLTRDTSISTAYMELSRLRSDDTAVYYCARSGGFDWFAYWGQGTLVTVSS VL: DIQMTQSPSSLSASVGDRVTITCRASENINSNLAWYQQKPGKAPKLLLYDVTNLADGVPSRFSGSGSGTDYTLTISSLQPEDFATYYCQHFWGPPYTFGGGTKVEIK : 0.02
